Data provenance: ChEMBL document CHEMBL3217528

System: G-protein coupled receptor 55 (Homo sapiens, UniProt Q9Y2T6)
Sequence (Q9Y2T6 whole entry, the tested form may be a part): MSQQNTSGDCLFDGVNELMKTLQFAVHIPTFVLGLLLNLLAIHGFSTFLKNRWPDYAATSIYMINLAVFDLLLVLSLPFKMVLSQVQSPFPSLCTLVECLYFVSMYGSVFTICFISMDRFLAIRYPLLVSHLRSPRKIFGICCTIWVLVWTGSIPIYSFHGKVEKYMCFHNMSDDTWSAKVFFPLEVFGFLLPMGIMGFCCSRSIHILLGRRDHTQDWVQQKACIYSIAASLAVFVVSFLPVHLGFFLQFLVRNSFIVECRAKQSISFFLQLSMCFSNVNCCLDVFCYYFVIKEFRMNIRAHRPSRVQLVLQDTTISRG
Experiment Description: Antagonist activity against human GPR55 expressed in CHO cells assessed as reduction in LPI-induced beta-arrestin recruitment at 10 uM by beta-galactosidase enzyme fragment complementation method
Type: cell-based
Everything with inhibition lower than 2% is NO; everything else, including exactly 2%, is YES.

* CCOC(=O)C1CN2C(=NC(=O)C2(c2ccccc2)c2ccccc2)S1 (stereo unspecified) | YES
* O=C1/C(=C/c2cccc(Cl)c2)N=C2SCCCN12 | YES
* O=C1/C(=C/c2ccc(Br)cc2)N=C2SCCCN12 | YES
* CC(C)c1ccc(/C=C2\N=C3SCCCN3C2=O)cc1 | YES
* O=C1/C(=C/c2cccc(OCc3ccc(Cl)cc3)c2)N=C2SCCCN12 | NO
* O=C1N=C2SCCCN2/C1=C\C=C\c1ccccc1 | NO
* O=C1/C(=C/c2cccc(OCc3ccc(Cl)cc3Cl)c2)N=C2SCCCN12 | NO
* O=C1/C(=C/C=C/c2ccccc2)N=C2SCCCN12 | YES
* O=C1/C(=C/c2cccc([N+](=O)[O-])c2)N=C2SCCCN12 | YES
* O=C1/C(=C/c2cccc(Oc3ccccc3)c2)N=C2SCCCN12 | YES

----------
System: N-arachidonyl glycine receptor (Homo sapiens) (UniProt Q14330)
Sequence (Q14330 whole entry, the tested form may be a part): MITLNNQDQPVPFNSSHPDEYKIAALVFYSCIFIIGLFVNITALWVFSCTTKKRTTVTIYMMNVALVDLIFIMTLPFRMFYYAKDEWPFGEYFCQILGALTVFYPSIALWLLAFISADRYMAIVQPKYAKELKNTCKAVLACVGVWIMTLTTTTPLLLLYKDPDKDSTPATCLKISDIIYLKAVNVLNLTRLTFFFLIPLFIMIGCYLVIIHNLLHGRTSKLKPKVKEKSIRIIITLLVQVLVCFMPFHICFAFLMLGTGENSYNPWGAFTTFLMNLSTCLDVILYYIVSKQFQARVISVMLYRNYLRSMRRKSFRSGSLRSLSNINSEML
Experiment Description: Antagonist activity against human GPR18 expressed in CHO cells assessed as reduction in delta9-THC-induced beta-arrestin recruitment at 10 uM by beta-galactosidase enzyme fragment complementation method
Assay type: cell-based
The threshold is inclusive: inhibition of exactly 6% counts as T; values below receive F.

- CCOC(=O)C1CN2C(=O)C(c3ccccc3)(c3ccccc3)N=C2S1 (stereo unspecified): F
- O=C1/C(=C/c2cccc(OCc3ccc(Cl)cc3)c2)N=C2SCCCCN12: T
- COc1ccc(/C=C2\N=C3SCCCN3C2=O)c(OC)c1: T
- O=C1/C(=C/c2cccc(OCc3cccc(Cl)c3)c2)N=C2SCCCCN12: T
- O=C1/C(=C/c2cccc(F)c2F)N=C2SCCCN12: F

----------
System: UniProt P21554
Sequence (P21554 whole entry): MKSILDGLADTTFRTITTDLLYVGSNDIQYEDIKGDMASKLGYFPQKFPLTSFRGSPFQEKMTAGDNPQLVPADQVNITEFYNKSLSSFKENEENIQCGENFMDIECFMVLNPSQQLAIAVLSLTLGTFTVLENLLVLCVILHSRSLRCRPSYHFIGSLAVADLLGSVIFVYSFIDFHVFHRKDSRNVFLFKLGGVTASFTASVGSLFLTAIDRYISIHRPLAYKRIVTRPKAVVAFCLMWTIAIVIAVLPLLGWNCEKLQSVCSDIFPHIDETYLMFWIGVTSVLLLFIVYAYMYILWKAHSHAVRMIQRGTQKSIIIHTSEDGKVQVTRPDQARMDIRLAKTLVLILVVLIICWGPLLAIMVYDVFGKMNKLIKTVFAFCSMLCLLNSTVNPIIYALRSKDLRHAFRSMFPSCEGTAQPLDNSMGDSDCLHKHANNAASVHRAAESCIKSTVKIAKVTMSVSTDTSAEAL
Experiment Description: Displacement of [3H]CP55,940 from human recombinant CB1 receptor expressed in CHO-K1 cells
Measurement Type: Ki

• O=C1/C(=C/c2cccc(OCc3ccc(Cl)c(Cl)c3)c2)N=C2SCCCN12 = > 10 µM
• Cc1ccc(C(=O)Oc2cccc(/C=C3\N=C4SCCCCN4C3=O)c2)cc1 = > 10 µM
• O=C1/C(=C/c2ccccc2F)N=C2SCCCN12 = > 10 µM
• O=C1/C(=C/c2cccc(OCc3ccc(Cl)cc3)c2)N=C2SCCCCN12 = 0.25 µM
• O=C1N=C2SCCCN2/C1=C\C=C\c1ccccc1 = > 10 µM
• O=C1/C(=C/c2ccc(-c3ccccc3)cc2)N=C2SCCCCN12 = > 10 µM
• CCCCC/C=C\C/C=C\C/C=C\C/C=C\CCCC(=O)NCC(=O)O [ARACHIDONOYL GLYCINE] = > 10 µM
• O=C1/C(=C/c2ccc(F)cc2F)N=C2SCCCN12 = > 10 µM
• O=C1/C(=C/c2ccc(Cl)cc2Cl)N=C2SCCCN12 = > 10 µM
• CCOC(=O)C1CN2C(=NC(=O)C2(c2ccccc2)c2ccccc2)S1 (stereo unspecified) = > 10 µM
• CCOC(=O)C1CN2C(=O)C(c3ccccc3)(c3ccccc3)N=C2S1 (stereo unspecified) = > 10 µM
